system: Leptochloa chinensis (L.) NEES (LEFCH); test: Herbicidal mixtures for weed control in transplanted paddy rice (in-water application, visual % injury); type: in vivo; settings: 35 g/ha alone
Here the recorded % Injury Ob is given for each entry.
Attribute Measured: % Injury Ob (%)

compound_structure_string=COc1c(Cl)ccc(-c2cc(N)c(Cl)c(C(=O)O)n2)c1F val=80
compound_structure_string=CCN(CC)CC.COc1c(Cl)ccc(-c2cc(N)c(Cl)c(C(=O)O)n2)c1Cl val=50
compound_structure_string=COC(=O)c1nc(-c2ccc(Cl)c(OC)c2F)cc(N)c1Cl val=0
compound_structure_string=COC(=O)c1ccccc1CS(=O)(=O)NC(=O)Nc1nc(OC)cc(OC)n1 val=15
compound_structure_string=COc1cnc(OC)n2nc(NS(=O)(=O)c3c(OCC(F)F)cccc3C(F)(F)F)nc12 val=20
compound_structure_string=COC(=O)c1nc(-c2ccc(Cl)c(OC)c2Cl)cc(N)c1Cl val=0
